Give measured IC50 for each item. Keep answers brief.
target: 12-lipoxygenase (Rattus norvegicus); construct: The platelets were then sonicated at 4° C. and centrifuged at 100,000×g for 30 minutes to obtain a supernatant as a 12-lipoxygenase enzyme solution; from tissue; host or cells: Sprague Dawley rat platelets (from aortic blood), sonicated, 100,000 x g supernatant; assay: 12-lipoxygenase inhibition assay (rat platelet supernatant, arachidonic acid, HPLC of 12-HETE); format: biochemical, Sprague Dawley male rat (platelets); conditions: Test Example 2, Table 2; read-out: IC50 value of 12-lipoxygenase
Sequence (F1LQ70 whole entry): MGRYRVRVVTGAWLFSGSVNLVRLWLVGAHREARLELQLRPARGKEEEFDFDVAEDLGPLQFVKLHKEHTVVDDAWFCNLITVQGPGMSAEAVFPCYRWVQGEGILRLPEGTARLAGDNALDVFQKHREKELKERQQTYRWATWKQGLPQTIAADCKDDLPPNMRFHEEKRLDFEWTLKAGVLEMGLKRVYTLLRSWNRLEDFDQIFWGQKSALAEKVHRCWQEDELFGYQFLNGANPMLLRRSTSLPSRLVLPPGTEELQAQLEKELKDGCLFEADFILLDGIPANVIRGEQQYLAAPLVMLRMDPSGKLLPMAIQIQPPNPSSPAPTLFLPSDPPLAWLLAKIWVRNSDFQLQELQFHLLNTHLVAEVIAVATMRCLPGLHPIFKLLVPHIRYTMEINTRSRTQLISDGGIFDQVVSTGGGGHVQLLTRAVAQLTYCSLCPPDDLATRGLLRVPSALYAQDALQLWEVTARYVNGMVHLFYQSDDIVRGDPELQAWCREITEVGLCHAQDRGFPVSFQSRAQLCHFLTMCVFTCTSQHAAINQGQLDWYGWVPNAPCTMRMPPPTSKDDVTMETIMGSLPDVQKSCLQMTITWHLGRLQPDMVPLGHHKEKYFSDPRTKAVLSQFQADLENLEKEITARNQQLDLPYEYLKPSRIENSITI
Entry format: amount then unit.

compound	valueObserved
O=c1oc2c(O)c(O)ccc2cc1-c1ccc([N+](=O)[O-])cc1 [Example 23, 3-(4-nitrophenyl)-7,8-dihydroxycoumarin]	34 nM

The following compounds each have a reported value; give each one's IC50.
1. O=c1oc2cc(O)c(O)cc2cc1-c1cccs1 [Example 15, 3-(thiophen-2-yl)-6,7-dihydroxycoumarin]
2. O=c1oc2cc(O)c(O)cc2cc1-c1ccc(Cl)cc1 [Example 8, 3-(4-chlorophenyl)-6,7-dihydroxycoumarin]
3. O=c1oc2c(O)c(O)ccc2cc1-c1ccc(Br)cc1 [Example 25, 3-(4-bromophenyl)-7,8-dihydroxycoumarin]

1. 21 nM
2. 7 nM
3. 13 nM
